assay-name: Example 1: phase I crossover food-effect study, single-dose pharmacokinetics of nelfinavir 250 mg tablets (total kilocalories and fat)
Format: in vivo, human (normal healthy volunteers)
settings: human, plasma, po, 1250 mg, nelfinavir; 1250 mg single oral dose with low calorie/low fat meal (125 Kcal/20% fat); read-out: AUC(0-∞) (AUCinf), least-squares mean
endpoint-label: AUC(0-inf)
Reply with a number, then the unit it belongs to.

Data point: Cc1c(O)cccc1C(=O)N[C@@H](CSc1ccccc1)[C@H](O)CN1C[C@H]2CCCC[C@H]2C[C@H]1C(=O)NC(C)(C)C (relative stereo) [nelfinavir] ; AUC(0-inf) = 23100 ng·h/mL

---

assay-name: Example 1: phase I crossover food-effect study, single-dose pharmacokinetics of nelfinavir 250 mg tablets (total kilocalories and fat)
Assay type: in vivo, human (normal healthy volunteers)
settings: human, plasma, po, 1250 mg, nelfinavir in plasma; 1250 mg single oral dose with high calorie/high fat meal (1000 Kcal/50% fat); read-out: Cmax, least-squares mean
Protocol: A phase I, randomized, open-label crossover study to evaluate the impact of total kilocalories and fat content on single-dose pharmacokinetic parameters of the nelfinavir 250 mg tablet formulation in normal healthy volunteers was performed. […] Plasma concentrations of nelfinavir and its active hydroxy-t-butylamide metabolite (M8) were measured by validated high performance liquid chromatography (HPLC) methods. […] The actual time of each collection was recorded on the source document. […]
endpoint-label: Cmax (ng/mL)
Lab book: enter the figure in ng/mL, no units written.

# Cmax of Cc1c(O)cccc1C(=O)N[C@@H](CSc1ccccc1)[C@H](O)CN1C[C@H]2CCCC[C@H]2C[C@H]1C(=O)NC(C)(C)C (relative stereo) = 5200

---

assay-name: Example 2: phase 1 crossover 3×3 study, fixed kilocalorie meal at 20% and 50% fat, single-dose pharmacokinetics of nelfinavir 250 mg tablets
Format: in vivo, human (normal, healthy volunteers)
settings: human, plasma, oral, 1250 mg, nelfinavir; 5×250-mg tablets during moderate calorie/high fat meal (500 Kcal/50% fat); read-out: t1/2 (terminal half-life), least-squares mean (converted)
endpoint-label: half-life

Reported half-life for Cc1c(O)cccc1C(=O)N[C@@H](CSc1ccccc1)[C@H](O)CN1C[C@H]2CCCC[C@H]2C[C@H]1C(=O)NC(C)(C)C (relative stereo) [nelfinavir] was 3.43 h

---

assay-name: Example 2: phase 1 crossover 3×3 study, fixed kilocalorie meal at 20% and 50% fat, single-dose pharmacokinetics of nelfinavir 250 mg tablets
Assay type: in vivo, human (normal, healthy volunteers)
settings: human, plasma, oral, 1250 mg, nelfinavir; 5×250-mg tablets single dose, fasting (reference); read-out: tmax, least-squares mean
endpoint-label: Tmax (h)
Your answer is read as h, so omit the unit and give the number.

// Cc1c(O)cccc1C(=O)N[C@@H](CSc1ccccc1)[C@H](O)CN1C[C@H]2CCCC[C@H]2C[C@H]1C(=O)NC(C)(C)C (relative stereo) [nelfinavir] : Tmax value = 2.42

---

assay-name: Example 1: phase I crossover food-effect study, single-dose pharmacokinetics of nelfinavir 250 mg tablets (total kilocalories and fat)
Type: in vivo, human (normal healthy volunteers)
settings: human, plasma, po, 1250 mg, nelfinavir in plasma; 1250 mg single oral dose with moderate calorie/low fat meal (500 Kcal/20% fat); read-out: Cmax, least-squares mean
Method: A phase I, randomized, open-label crossover study to evaluate the impact of total kilocalories and fat content on single-dose pharmacokinetic parameters of the nelfinavir 250 mg tablet formulation in normal healthy volunteers was performed. […] Plasma concentrations of nelfinavir and its active hydroxy-t-butylamide metabolite (M8) were measured by validated high performance liquid chromatography (HPLC) methods. […] The actual time of each collection was recorded on the source document. […]
endpoint-label: Cmax (ng/mL)
Write down the numeric answer in ng/mL and omit the unit.

Briefly, Cmax measured for Cc1c(O)cccc1C(=O)N[C@@H](CSc1ccccc1)[C@H](O)CN1C[C@H]2CCCC[C@H]2C[C@H]1C(=O)NC(C)(C)C (relative stereo) : 3670
